Origin of values: patent US9822068B2

- assay-notes: Pharmacokinetic experiment in cannulated Sprague-Dawley rats (PO and IV)
- Format: in vivo
- cond: rat, IV, 3 mg/kg, plasma, read-out: AUC IV (3 mg/kg) (converted)
readout-kind: AUC (ng·h/mL)

CNC(=O)c1cccc(-c2cccc(OC(=O)NC3CCCCC3)c2)c1 [[drawing 127] comparison compound, reference compound] :: 1520
NC(=O)c1cccc(-c2cc(OC(=O)NC3CCC3)ccc2F)c1 :: 498
CNC(=O)c1cccc(-c2cc(OC(=O)NC3CCCCC3)ccc2OC(F)F)c1 :: 1390
NS(=O)(=O)c1cccc(-c2cccc(OC(=O)NC3CCCCC3)c2)c1 [[drawing 129] comparison compound, reference compound] :: 725
NC(=O)c1cccc(-c2cccc(OC(=O)NC3CCC3)c2)c1 [[drawing 131] comparison compound, reference compound] :: 891
CNC(=O)c1cccc(-c2cc(OC(=O)NC3CCCCC3)ccc2F)c1 :: 1280
NC(=O)c1cccc(-c2cccc(OC(=O)NC3CCCCC3)c2)c1 [[drawing 135] comparison compound, reference compound] :: 2560
NS(=O)(=O)c1cccc(-c2cc(OC(=O)NC3CCCCC3)ccc2F)c1 :: 746
NC(=O)c1cccc(-c2cc(OC(=O)NC3CCCCC3)ccc2OC(F)F)c1 :: 2110
